# credit: patent US9937145B2

tested on: male ICR mice; assay: MES test (anti-epilepsy activity), mice, oral (mMES po); type: in vivo; conditions: Mus musculus, mice, at peak time
# Lookup of reported ED50 keyed by entry
Provide a numeric answer, followed by its unit.

Example cases with answers are listed next.
{"MOLECULE": "CC1(C)O[C@@H](COS(N)(=O)=O)[C@H](c2ccc(Cl)cc2Cl)O1 [Example 40]", "ASSAYED_TARGET": "male ICR mice", "REPORTED_VALUE": "49.2 mg/kg"}
{"MOLECULE": "Nc1ccccc1[C@@H]1OC2(CCCC2)O[C@H]1COS(N)(=O)=O [Example 72]", "ASSAYED_TARGET": "male ICR mice", "REPORTED_VALUE": "14.2 mg/kg"}
{"MOLECULE": "Nc1ccccc1[C@@H]1OC2(CCCCC2)O[C@H]1COS(N)(=O)=O [Example 74]", "ASSAYED_TARGET": "male ICR mice", "REPORTED_VALUE": "14.5 mg/kg"}
{"MOLECULE": "CC1(C)O[C@H](c2ccccc2I)[C@@H](COS(N)(=O)=O)O1 [Example 27]", "ASSAYED_TARGET": "male ICR mice", "REPORTED_VALUE": "27.6 mg/kg"}
{"MOLECULE": "CC1(C)OC(COS(N)(=O)=O)C(c2ccccc2Cl)O1 (mixture of isomers) [Example 3]", "ASSAYED_TARGET": "male ICR mice", "REPORTED_VALUE": "14 mg/kg"}
{"MOLECULE": "NS(=O)(=O)OC[C@@H]1OC(=O)O[C@H]1c1ccccc1[N+](=O)[O-] [Example 90]", "ASSAYED_TARGET": "male ICR mice", "REPORTED_VALUE": "9.2 mg/kg"}
{"MOLECULE": "CC1(C)O[C@H](c2ccccc2Cl)[C@@H](COS(N)(=O)=O)O1 [Example 1]", "ASSAYED_TARGET": "male ICR mice", "REPORTED_VALUE": "6.5 mg/kg"}
{"MOLECULE": "CC1(C)O[C@@H](COS(N)(=O)=O)[C@H](c2ccccc2I)O1 [Example 28]", "ASSAYED_TARGET": "male ICR mice", "REPORTED_VALUE": "15 mg/kg"}

Exercise: # get_value(readout='ED50', item= CC1(C)O[C@@H](COS(N)(=O)=O)[C@H](c2ccccc2Cl)O1 [Example 2] )
Solution: 9 mg/kg

Exercise: # get_value(readout='ED50', item= CC1(C)O[C@@H](COS(N)(=O)=O)[C@H](c2ccc(Cl)s2)O1 [Example 172] )
Solution: 30.2 mg/kg

Exercise: # get_value(readout='ED50', item= CC1(C)O[C@@H](COS(N)(=O)=O)[C@H](c2ccsc2)O1 [Example 171] )
Solution: 43.3 mg/kg

Exercise: # get_value(readout='ED50', item= CC1(C)O[C@@H](COS(=O)(=O)[NH][Na])[C@H](c2ccccc2N)O1 [Example 66] )
Solution: 12.3 mg/kg
